system: giant foxtail (Setaria faberii); assay: Test A preemergence, visual injury rating; assay type: in vivo; details: 500 g ai/ha, 0 to 100 scale (0 no effect, 100 complete control)
result-type: Foxtail, Giant plant response rating
Write no unit; give the number alone.

test-smiles: CN(OCC(F)(F)F)C(=O)c1c(Br)cccc1Oc1ncc(Br)cn1
Foxtail, Giant plant response rating: 20
//
test-smiles: N#CCOC(=O)c1c(C#N)cccc1Oc1ncc(Cl)cn1
Foxtail, Giant plant response rating: 0
//
test-smiles: O=C(OC1CCC1)c1c(Br)cccc1Oc1ncc(Cl)cn1
Foxtail, Giant plant response rating: 100
//
test-smiles: CCOCc1c(Br)cccc1Oc1ncc(Cl)cn1
Foxtail, Giant plant response rating: 100
//
test-smiles: CCSC(=O)c1c(Br)cccc1Oc1ncc(Cl)cn1
Foxtail, Giant plant response rating: 100
//
test-smiles: N#CCOC(=O)c1c(Br)cccc1Oc1ncc(Cl)cn1
Foxtail, Giant plant response rating: 100
//
test-smiles: O=C(OCCC(F)(F)F)c1c(Br)cccc1Oc1ncc(Br)cn1
Foxtail, Giant plant response rating: 100
//
test-smiles: O=C(OCCCC(F)(F)F)c1c(Oc2ncc(Cl)cn2)cccc1C(F)(F)F
Foxtail, Giant plant response rating: 100
//
test-smiles: O=C(OCC(F)(F)F)c1c(F)cccc1Oc1ncc(Cl)cn1
Foxtail, Giant plant response rating: 10

Now turn to the next molecule.
Req: Can you look up the measured Foxtail, Giant plant response rating of N#CCCOC(=O)c1c(Br)cccc1Oc1ncc(Cl)cn1 for me?
Resp: 100

###

tested on: morningglory (Ipomoea coccinea); experiment: Test C postemergence, plant response rating; type: in vivo; conditions: 16 g ai/ha, scale of 0 to 100
result-type: Plant response rating, Morningglory

Example cases with answers are listed next.
test-smiles: O=C(CCCCC(F)(F)F)c1c(Br)cccc1Oc1ncc(Cl)cn1
Plant response rating, Morningglory: 25
--
test-smiles: O=C(CCCC(F)(F)F)c1c(Br)cccc1Oc1ncc(Cl)cn1
Plant response rating, Morningglory: 50
--
test-smiles: N#Cc1cccc(Oc2ncc(Cl)cn2)c1COCCC(F)(F)F
Plant response rating, Morningglory: 25
--
test-smiles: O=C(CCC(F)(F)F)c1c(Br)cccc1Oc1ncc(Cl)cn1
Plant response rating, Morningglory: 20

Req: Can you look up the measured Plant response rating, Morningglory of CCCCC(=O)c1c(Br)cccc1Oc1ncc(Cl)cn1 for me?
Resp: 10

###

system: barnyardgrass (Echinochloa crus-galli); experiment: Test C preemergence, plant response rating; type: in vivo; conditions: Echinochloa crus-galli, pre-emergence; Preemergence, 62 g ai/ha; scale of 0 to 100
Catalogue of compounds with associated pest or weed control at 62 g/ha
Answers without a unit are incomplete; give the number and then its unit.

Example cases with answers are listed next.
compound: C=CCCOC(=O)c1c(Br)cccc1Oc1ncc(Cl)cn1 [Compound 21]
result-type: pest or weed control at 62 g/ha
meas-value: 90%
--
compound: CC(CC(F)(F)F)OC(=O)c1c(Br)cccc1Oc1ncc(Cl)cn1 (stereo not shown) [Compound 16]
result-type: pest or weed control at 62 g/ha
meas-value: 30%
--
compound: N#Cc1cccc(Oc2ncc(Cl)cn2)c1CCCCC(F)(F)F [Compound 73]
result-type: pest or weed control at 62 g/ha
meas-value: 100%

Now turn to the next compound.
Req: Value wanted: pest or weed control at 62 g/ha (barnyardgrass (Echinochloa crus-galli)) of entry O=C(OCCCC(F)(F)F)c1c(Br)cccc1Oc1ncc(Cl)cn1 [Compound 20]
Resp: 30%

Origin of the recorded values: patent US11053204B2
